test system: MDA-MB-435; experiment: NCI tumour cell line growth inhibition, 48 h
Hi there, I'd appreciate the recorded TGI for every entry that follows.
Numbers only, in µM.

Below are worked cases with known answers.
Molecule	Assay Metric	Result Number
Nc1ncc(-c2cnn(C3CCNCC3)c2)cc1-c1nc2cc(Cl)ccc2o1	TGI	3.36
Nc1n[nH]c2cccc(C#Cc3cccc(NC(=O)c4cccc(C(F)(F)F)c4)c3)c12	TGI	13.7

Below is a list of molecules. For each, state its recorded TGI.
1. COc1ccc2c(c1)OC1=C(C(=O)OC1)C2c1cc(OC)c2c(c1)OCCO2 (stereo unspecified)
2. COc1ccc(CC2COc3cc(OC)cc(OC)c3C2=O)cc1 (stereo unspecified)
3. Clc1ccc(CCN(CCc2ccc(Cl)c(Cl)c2)CCN2CCCC2)cc1Cl
4. COc1cccc2c1C(=N)c1c(O)c3c(c(O)c1C2=O)C[C@@](O)(C(C)=O)C[C@@H]3O[C@H]1C[C@H](N)[C@H](O)[C@H](C)O1

[0.056, 18.1, 2.75, 8.91]

---

tested on: KM20L2 colon; assay: NCI tumour cell line growth inhibition, 48 h
Assay Metric: TGI

Before answering, review these 5 worked examples.
Molecule	TGI
O=C1C=C(C2OC(CO)C(O)C2O)C(=O)N1 (centres undefined)	> 100 µM
COc1ccc(NC(=O)CC/C(CC(=O)c2ccco2)=N/NC(=O)C(N)=O)cc1	> 100 µM
Cc1ccc(C)c(NC(=O)CC2Sc3ccccc3NC2=O)c1 (centres undefined)	> 100 µM
CC(=O)Oc1cc2c(cc1OC(C)=O)C1(C)CCC2(C)c2cc(OC(C)=O)c(OC(C)=O)cc21	79.5 µM
O=C(Nc1cccc(O)c1)C(=O)C1C(=O)NC(=S)NC1=O	> 100 µM

For each listed entry, give its TGI.
1. CNC(=O)OCc1nc(SSC(C)(C)C)n(C)c1COC(=O)NC
2. CCOC1C(Br)Cn2c(=O)c3cc4ccccc4cc3c(=O)n2C1C (centres undefined)
3. CCCCCCCCCCCC(=O)OCCOCCOCCOCCOCCOC(=O)CCCCCCCCCCC
4. O=C(O)CCC1CCc2cccc(O)c2C1=O (centres undefined)

["25.6 µM", "> 100 µM", "> 100 µM", "> 100 µM"]

---

test system: SK-MEL-28 melanoma; assay: NCI tumour cell line growth inhibition, 48 h
I'd appreciate it if you could supply TGI values for the items below.

See these solved cases before continuing.
Molecule	Target Or System	TGI
Cc1ccc(S(=O)(=O)OC2CC=CC2)cc1	SK-MEL-28 melanoma	> 100 µM
CCCC1(CC(=O)O)OCCc2c1[nH]c1ccccc21 (stereo unspecified)	SK-MEL-28 melanoma	> 100 µM
CCOP(=Nc1ccc(N(C)C)cc1)(OCC)OCC	SK-MEL-28 melanoma	> 100 µM
O=C(O)CSCCc1ccccc1	SK-MEL-28 melanoma	> 100 µM
CCOC(=O)/C=C(\C(=O)OCC)n1cc(C)c(=O)n(Cc2cn(CCCCOC(C)=O)nn2)c1=O	SK-MEL-28 melanoma	31.7 µM
Cc1ccc(C(=O)N/N=C(\N=Nc2cccc([N+](=O)[O-])c2)c2ccc(N(CCC#N)CCC#N)cc2C)cc1	SK-MEL-28 melanoma	> 86.3 µM
Cc1ccc(C2=C(c3ccc(C)cc3)C3(c4ccc(C)cc4)C4C(=O)OC(=O)C4C2(c2ccc(C)cc2)S3=O)cc1 (stereo unspecified)	SK-MEL-28 melanoma	96.1 µM
Nc1cc([N+](=O)[O-])ccc1C(=O)N1CCC[C@H]1CO	SK-MEL-28 melanoma	> 100 µM
CCC1=CCN(c2cc(C)ccn2)OC1c1ccc(OC)cc1 (stereo unspecified)	SK-MEL-28 melanoma	64.9 µM
CCN1CCCc2cc3c(C(F)(F)F)cc(=O)oc3cc21	SK-MEL-28 melanoma	> 100 µM

Go through the list and state TGI for each entry.
1. N#CSCC(Cl)=CCl (mixture of isomers)
2. C=C(C)C1CCC(C(=O)O)CC1 (stereo unspecified)
3. COC(=O)[C@@H]1C=C[C@H](OC2OC(COC(C)=O)C(OC(C)=O)C(OC(C)=O)C2OC(C)=O)n2c(=O)n(-c3ccccc3)c(=O)n21 (stereo partly specified)
4. CN(C)CCNC(=O)c1cccc2c(=O)c3ccccc3oc12
5. O=c1oc2ccccc2c(Nc2ccc3c(c2)Sc2ccccc2O3)c1[N+](=O)[O-]
6. CN(C)CCC(=O)N1C/C(=C\c2ccc(Cl)c(Cl)c2)C(=O)/C(=C/c2ccc(Cl)c(Cl)c2)C1

> 100 µM
> 100 µM
5.59 µM
> 100 µM
73.3 µM
1.82 µM
